molecular target: FAK (Homo sapiens, UniProt Q05397)
Sequence (Q05397 whole entry): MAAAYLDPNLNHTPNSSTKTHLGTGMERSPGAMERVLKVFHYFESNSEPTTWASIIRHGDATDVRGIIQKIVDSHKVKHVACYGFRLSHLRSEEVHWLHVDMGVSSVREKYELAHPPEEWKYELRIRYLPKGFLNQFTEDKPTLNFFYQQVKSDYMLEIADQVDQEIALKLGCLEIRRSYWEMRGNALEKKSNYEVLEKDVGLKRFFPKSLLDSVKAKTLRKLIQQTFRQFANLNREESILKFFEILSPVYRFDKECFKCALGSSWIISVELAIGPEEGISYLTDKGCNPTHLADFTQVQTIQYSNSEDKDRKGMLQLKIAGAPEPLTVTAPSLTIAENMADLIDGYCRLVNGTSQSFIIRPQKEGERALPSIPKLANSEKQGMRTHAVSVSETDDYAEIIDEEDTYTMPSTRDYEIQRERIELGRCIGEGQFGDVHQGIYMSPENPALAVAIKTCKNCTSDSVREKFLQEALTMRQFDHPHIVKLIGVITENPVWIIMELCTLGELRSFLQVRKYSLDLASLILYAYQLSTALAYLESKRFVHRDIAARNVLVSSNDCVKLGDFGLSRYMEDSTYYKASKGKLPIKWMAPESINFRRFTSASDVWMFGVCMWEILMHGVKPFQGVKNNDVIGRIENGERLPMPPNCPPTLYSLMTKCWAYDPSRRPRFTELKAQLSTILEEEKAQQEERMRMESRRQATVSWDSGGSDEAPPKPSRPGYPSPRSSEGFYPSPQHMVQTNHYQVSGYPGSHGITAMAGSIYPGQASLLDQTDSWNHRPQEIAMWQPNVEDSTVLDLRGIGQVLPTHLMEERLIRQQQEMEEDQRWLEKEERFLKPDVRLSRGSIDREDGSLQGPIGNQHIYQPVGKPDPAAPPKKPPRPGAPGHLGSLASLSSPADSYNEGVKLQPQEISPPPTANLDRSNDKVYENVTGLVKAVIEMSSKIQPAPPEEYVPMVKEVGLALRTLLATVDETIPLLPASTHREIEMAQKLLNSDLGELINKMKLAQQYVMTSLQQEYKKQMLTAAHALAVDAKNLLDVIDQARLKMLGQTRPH
pIC50: −log10 of the molar value.
RESULT TYPE: pIC50

Please supply the value of reported pIC50 for the item CC(C)NC(=O)[C@H]1CC[C@@H](n2/c(=N/C(=O)c3cc(F)cc(F)c3)[nH]c3ccc(CN4CCC(C(C)(C)O)CC4)cc32)CC1
6.30 to 7.00

----------
biological target: RET(Y791F) (Homo sapiens, UniProt P07949, Y791F); assay: Off-chip mobility shift kinase assay, RET [Y791F]; conditions: CSKtide 1000 nM, ATP 25 μM, Mg 5 mM
Sequence (P07949 29-1114 Y791F): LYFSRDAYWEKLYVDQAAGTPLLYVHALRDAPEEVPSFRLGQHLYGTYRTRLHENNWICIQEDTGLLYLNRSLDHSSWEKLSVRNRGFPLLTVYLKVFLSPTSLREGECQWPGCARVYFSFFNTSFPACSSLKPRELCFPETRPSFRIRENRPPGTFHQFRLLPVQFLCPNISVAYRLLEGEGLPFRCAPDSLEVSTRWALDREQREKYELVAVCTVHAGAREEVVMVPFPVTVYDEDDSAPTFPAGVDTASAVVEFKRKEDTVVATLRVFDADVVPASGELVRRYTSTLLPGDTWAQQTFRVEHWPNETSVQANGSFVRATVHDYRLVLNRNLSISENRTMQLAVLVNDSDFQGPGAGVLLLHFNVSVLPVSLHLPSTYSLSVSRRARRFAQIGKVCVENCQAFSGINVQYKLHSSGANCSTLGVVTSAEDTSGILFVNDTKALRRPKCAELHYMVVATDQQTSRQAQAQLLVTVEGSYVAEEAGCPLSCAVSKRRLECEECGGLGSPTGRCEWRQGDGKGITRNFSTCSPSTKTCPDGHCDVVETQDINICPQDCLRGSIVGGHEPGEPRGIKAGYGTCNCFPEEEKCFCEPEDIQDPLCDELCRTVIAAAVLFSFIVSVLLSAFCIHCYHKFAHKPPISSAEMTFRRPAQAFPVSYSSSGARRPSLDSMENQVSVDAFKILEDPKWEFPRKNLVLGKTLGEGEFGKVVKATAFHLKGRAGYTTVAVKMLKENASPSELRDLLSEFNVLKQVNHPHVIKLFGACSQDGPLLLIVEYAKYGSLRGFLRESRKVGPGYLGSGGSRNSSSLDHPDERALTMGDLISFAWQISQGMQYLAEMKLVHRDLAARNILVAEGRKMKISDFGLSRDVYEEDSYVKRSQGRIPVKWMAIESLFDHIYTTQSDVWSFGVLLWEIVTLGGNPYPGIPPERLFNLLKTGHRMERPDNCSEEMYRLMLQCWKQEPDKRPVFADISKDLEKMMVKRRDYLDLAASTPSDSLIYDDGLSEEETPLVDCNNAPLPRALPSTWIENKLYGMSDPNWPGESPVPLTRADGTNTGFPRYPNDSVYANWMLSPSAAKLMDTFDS
The following compounds are listed with their measured IC50 values.

| ENTRY SMILES | IC50 |
| --- | --- |
| CC(C)NC(=O)[C@H]1CC[C@@H](n2/c(=N/C(=O)c3cc(F)cc(F)c3)[nH]c3ccc(CN4CCC(C(C)(C)O)CC4)cc32)CC1 | > 1000 nM |

From here, focus on the item given below.
GET IC50 | system: RET(Y791F) (Homo sapiens, UniProt P07949, Y791F) | item: CC(C)NC(=O)[C@H]1CC[C@@H](n2/c(=N/C(=O)c3ccc(F)cc3)[nH]c3ccc(CN4CCC(C(C)(C)O)CC4)cc32)CC1
1 to 100 nM

----------
molecular target: RET (Homo sapiens)
Sequence (P07949 29-1114): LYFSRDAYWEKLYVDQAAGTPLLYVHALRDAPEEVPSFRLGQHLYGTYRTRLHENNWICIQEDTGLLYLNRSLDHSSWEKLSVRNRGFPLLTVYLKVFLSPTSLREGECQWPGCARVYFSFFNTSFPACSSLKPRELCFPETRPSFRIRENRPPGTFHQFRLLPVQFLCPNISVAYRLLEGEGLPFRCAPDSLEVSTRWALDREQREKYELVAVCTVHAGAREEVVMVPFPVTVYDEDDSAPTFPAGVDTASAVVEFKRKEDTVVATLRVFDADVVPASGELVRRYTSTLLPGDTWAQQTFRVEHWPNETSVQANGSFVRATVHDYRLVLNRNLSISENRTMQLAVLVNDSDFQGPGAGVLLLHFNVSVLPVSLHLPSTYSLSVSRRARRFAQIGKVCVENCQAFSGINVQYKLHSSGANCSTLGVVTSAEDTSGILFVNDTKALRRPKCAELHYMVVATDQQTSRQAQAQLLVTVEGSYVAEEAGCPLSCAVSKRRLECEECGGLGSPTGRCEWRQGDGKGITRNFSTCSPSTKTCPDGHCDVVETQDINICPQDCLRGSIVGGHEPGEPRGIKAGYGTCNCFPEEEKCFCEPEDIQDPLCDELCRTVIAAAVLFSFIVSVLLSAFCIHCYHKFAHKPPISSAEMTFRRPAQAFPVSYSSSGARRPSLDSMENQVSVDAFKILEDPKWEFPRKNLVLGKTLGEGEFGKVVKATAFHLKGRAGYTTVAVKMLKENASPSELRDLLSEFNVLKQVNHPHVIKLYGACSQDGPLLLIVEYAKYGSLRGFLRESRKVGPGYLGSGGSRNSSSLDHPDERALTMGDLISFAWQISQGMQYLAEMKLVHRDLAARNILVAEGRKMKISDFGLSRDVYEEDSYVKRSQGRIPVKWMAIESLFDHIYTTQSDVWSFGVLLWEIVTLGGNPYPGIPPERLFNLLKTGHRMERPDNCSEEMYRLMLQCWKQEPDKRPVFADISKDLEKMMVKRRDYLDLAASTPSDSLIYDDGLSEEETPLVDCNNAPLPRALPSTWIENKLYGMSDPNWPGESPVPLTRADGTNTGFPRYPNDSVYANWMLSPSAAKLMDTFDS
RESULT TYPE: IC50

Please respond with reported IC50 (system RET (Homo sapiens)) for CC(C)NC(=O)[C@H]1CC[C@@H](n2/c(=N/C(=O)c3ccc(F)cc3)[nH]c3ccc(CN4CCC(C(C)(C)O)CC4)cc32)CC1 [I-a] .
0.001 to 0.1 µM

----------
Each item that follows carries a reported IC50.
molecular target: EGFR(T790M) (Homo sapiens, UniProt P00533, T790M); assay: Off-chip mobility shift kinase assay, EGFR [T790M]; details: Srctide 1000 nM, ATP 1 μM, Mg + Mn 5 + 1 mM
Sequence (P00533 25-1210 T790M): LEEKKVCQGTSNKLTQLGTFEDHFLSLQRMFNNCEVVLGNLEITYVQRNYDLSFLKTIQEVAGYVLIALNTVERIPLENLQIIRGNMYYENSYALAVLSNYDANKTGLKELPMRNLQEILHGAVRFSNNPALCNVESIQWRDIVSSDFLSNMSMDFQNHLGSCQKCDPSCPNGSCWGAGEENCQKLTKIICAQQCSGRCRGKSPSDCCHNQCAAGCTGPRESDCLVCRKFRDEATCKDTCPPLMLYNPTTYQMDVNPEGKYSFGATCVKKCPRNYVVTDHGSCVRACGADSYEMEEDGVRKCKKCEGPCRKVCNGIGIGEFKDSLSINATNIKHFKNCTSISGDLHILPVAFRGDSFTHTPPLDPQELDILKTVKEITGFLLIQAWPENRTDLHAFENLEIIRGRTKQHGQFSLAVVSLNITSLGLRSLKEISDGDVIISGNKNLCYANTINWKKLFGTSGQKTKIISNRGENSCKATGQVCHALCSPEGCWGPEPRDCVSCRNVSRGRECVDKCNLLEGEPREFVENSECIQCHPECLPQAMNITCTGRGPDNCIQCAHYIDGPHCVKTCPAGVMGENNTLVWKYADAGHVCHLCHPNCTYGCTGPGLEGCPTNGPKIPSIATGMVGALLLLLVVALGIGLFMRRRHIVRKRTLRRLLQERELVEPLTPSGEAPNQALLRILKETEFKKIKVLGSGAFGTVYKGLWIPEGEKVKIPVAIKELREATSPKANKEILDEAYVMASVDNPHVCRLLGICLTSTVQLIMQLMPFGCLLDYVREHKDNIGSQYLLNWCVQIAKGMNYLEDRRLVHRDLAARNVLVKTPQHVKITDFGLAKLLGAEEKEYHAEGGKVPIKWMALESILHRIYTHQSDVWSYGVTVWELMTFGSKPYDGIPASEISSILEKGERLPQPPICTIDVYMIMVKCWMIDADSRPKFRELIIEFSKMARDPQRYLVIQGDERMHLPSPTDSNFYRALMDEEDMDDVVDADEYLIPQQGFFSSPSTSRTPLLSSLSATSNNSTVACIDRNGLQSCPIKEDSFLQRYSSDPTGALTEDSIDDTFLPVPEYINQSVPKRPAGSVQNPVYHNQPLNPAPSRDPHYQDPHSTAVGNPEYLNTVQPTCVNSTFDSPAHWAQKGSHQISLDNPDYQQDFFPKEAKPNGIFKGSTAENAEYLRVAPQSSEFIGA

Check the records and state IC50 for CC(C)NC(=O)[C@H]1CC[C@@H](n2/c(=N/C(=O)c3ccc(F)cc3)[nH]c3ccc(CN4CCC(C(C)(C)O)CC4)cc32)CC1
> 1000 nM

Identify IC50 associated with the compound CC(C)NC(=O)[C@H]1CC[C@@H](n2/c(=N/C(=O)c3cc(F)cc(F)c3)[nH]c3ccc(CN4CCC(C(C)(C)O)CC4)cc32)CC1
> 1000 nM

----------
target: TRKC (Homo sapiens, UniProt Q16288)
RESULT TYPE: IC50

Name the recorded IC50 of the compound listed here: CC(C)NC(=O)[C@H]1CC[C@@H](n2/c(=N/C(=O)c3ccc(F)cc3)[nH]c3ccc(CN4CCC(C(C)(C)O)CC4)cc32)CC1
1 to 100 nM

----------
Some molecules, each annotated with its measured IC50.
molecular target: RET(M918T) (Homo sapiens, UniProt P07949, M918T); assay: Off-chip mobility shift kinase assay, RET [M918T]; details: CSKtide 1000 nM, ATP 5 μM, Mg 5 mM
Sequence (P07949 29-1114 M918T): as the sequence (P07949 29-1114 Y791F) above, with F763Y, M890T counted along it

| MOLECULE | IC50 |
| --- | --- |
| CC(C)NC(=O)[C@H]1CC[C@@H](n2/c(=N/C(=O)c3ccc(F)cc3)[nH]c3ccc(CN4CCC(C(C)(C)O)CC4)cc32)CC1 [I-a] | 1 to 100 nM |

As a next step, examine the molecule that follows.
Please list IC50 recorded for the molecule CC(C)NC(=O)[C@H]1CC[C@@H](n2/c(=N/C(=O)c3cc(F)cc(F)c3)[nH]c3ccc(CN4CCC(C(C)(C)O)CC4)cc32)CC1 [I-b]
> 1000 nM

This collection of values is drawn from patent US20150306086A1.
